experiment: Selectivity index, ratio of LD50 for cytotoxicity against albino Swiss mouse peritoneal macrophages to IC50 for Trypanocidal activity against Trypanosoma cruzi Y strain bloodstream trypomastigotes isolated from infected albino Swiss mouse in presence of 5 % mouse blood; assay type: toxicity; details: read-out: Selectivity Index
Answer each item with its documented selectivity ratio.
One number for each entry.

>>> quantitative_result("COC(=O)C1(C(=O)OC)Cc2c(c(-c3ccc(F)cc3)c3c(c2-c2ccc(F)cc2)C(=O)C=CC3=O)C1")
0.89

Hi team, please reply with selectivity ratio for each item in this list.
1. O=C1C=CC(=O)c2cc3c(cc21)CCC3
2. COC(=O)C1(C(=O)OC)Cc2cc3c(cc2C1)C(=O)C(I)=CC3=O
3. COC(=O)C1(C(=O)OC)Cc2cc3c(cc2C1)C(=O)C(Cl)=CC3=O
4. COC(=O)C1(C(=O)OC)Cc2c(c(-c3ccc(OC)cc3)c3c(c2-c2ccc(OC)cc2)C(=O)C=CC3=O)C1

0.03
0.03
0.09
0.81

---

assay: Cytotoxicity against albino Swiss mouse Peritoneal macrophages in presence of 5 % mouse blood incubated for 24 hrs by PrestoBlue dye based fluorescence assay; type: cell-based, Peritoneal macrophage; conditions: read-out: LD50
endpoint.name: log10 CC50 at 24 h (log10 of the value in µM)
All values: base-10 log of CC50 at 24 h in µM.

>>> quantitative_result("COC(=O)C1(C(=O)OC)Cc2cc3c(cc2C1)C(=O)C=CC3=O")
0.20
>>> quantitative_result("COC(=O)C1(C(=O)OC)Cc2cc3c(cc2C1)C(=O)C(c1ccccc1Br)=CC3=O")
0.58
>>> quantitative_result("COC(=O)C1(C(=O)OC)Cc2c(c(-c3ccc(OC)cc3)c3c(c2-c2ccc(OC)cc2)C(=O)C=CC3=O)C1")
0.28
>>> quantitative_result("COc1ccc(C2=C(CCC(C)=O)C(=O)c3ccccc3C2=O)cc1")
1.90

Reported log10 CC50 at 24 h ( CC(=O)CCC1=C(c2ccc(F)cc2)C(=O)c2ccccc2C1=O ) = 1.82

---

assay: Cytotoxicity against albino Swiss mouse Peritoneal macrophages in presence of 5 % mouse blood incubated for 24 hrs by PrestoBlue dye based fluorescence assay; format: cell-based, Peritoneal macrophage; conditions: read-out: LD50
The label is condition met for CC50 at 24 h below 3 µM and condition not met for CC50 at 24 h equal to or exceeding 3 µM.

Some solved entries appear below for comparison.
>>> group("COC(=O)C1(C(=O)OC)Cc2c(c(-c3ccccc3)c3c(c2-c2ccccc2)C(=O)C=CC3=O)C1")
"condition met"
>>> group("COC(=O)C1(C(=O)OC)Cc2cc3c(cc2C1)C(=O)C(I)=CC3=O")
"condition met"

Threshold test, CC50 at 24 h < 3 µM: CCCCc1c2c(cc3c1C(=O)C=CC3=O)CC(C(=O)OC)(C(=O)OC)C2 condition not met

Threshold test, CC50 at 24 h < 3 µM: COC(=O)C1(C(=O)OC)Cc2cc3c(cc2C1)C(=O)C(Cl)=CC3=O condition not met

Threshold test, CC50 at 24 h < 3 µM: O=C1C=CC(=O)c2cc3c(cc21)CCC3 condition met

---

assay: Selectivity index, ratio of LD50 for cytotoxicity against albino Swiss mouse peritoneal macrophages to IC50 for Trypanocidal activity against Trypanosoma cruzi Y strain bloodstream trypomastigotes isolated from infected albino Swiss mouse in presence of 5 % mouse blood; assay type: toxicity; settings: read-out: Selectivity Index
endpoint.name: selectivity ratio
Answers are plain numbers.

>>> quantitative_result("COc1ccc(C2=C(CCC(C)=O)C(=O)c3ccccc3C2=O)cc1")
1.38
>>> quantitative_result("COC(=O)C1(C(=O)OC)Cc2cc3c(cc2C1)C(=O)C(c1ccccc1Br)=CC3=O")
0.07
>>> quantitative_result("CCCCc1c2c(cc3c1C(=O)C=CC3=O)CC(C(=O)OC)(C(=O)OC)C2")
0.07

Hi team, please reply with selectivity ratio for each item in this list.
1. COC(=O)C1(C(=O)OC)Cc2cc3c(cc2C1)C(=O)C=CC3=O
2. COC(=O)C1(C(=O)OC)Cc2c(c(-c3ccccc3)c3c(c2-c2ccccc2)C(=O)C=CC3=O)C1

1. 0.03
2. 0.6
